target: Torsin-1A-interacting protein 2 (Homo sapiens) (UniProt Q8NFQ8); assay: small molecules binding lysate-expressed LULL1 – cell lysate, human LULL1 lysate, 635/667 nm fluorescence, primary screen (AID 1092); conditions: small-molecule microarray, hLULL1 lysate binding, 635 nm fluorescence; higher = more signal;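 note: probe is lysate of COS7 cells overexpressing human LULL1; score merges per-feature 667 nm fluorescence with signal-to-noise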
Sequence (Q8NFQ8 whole entry, looked up): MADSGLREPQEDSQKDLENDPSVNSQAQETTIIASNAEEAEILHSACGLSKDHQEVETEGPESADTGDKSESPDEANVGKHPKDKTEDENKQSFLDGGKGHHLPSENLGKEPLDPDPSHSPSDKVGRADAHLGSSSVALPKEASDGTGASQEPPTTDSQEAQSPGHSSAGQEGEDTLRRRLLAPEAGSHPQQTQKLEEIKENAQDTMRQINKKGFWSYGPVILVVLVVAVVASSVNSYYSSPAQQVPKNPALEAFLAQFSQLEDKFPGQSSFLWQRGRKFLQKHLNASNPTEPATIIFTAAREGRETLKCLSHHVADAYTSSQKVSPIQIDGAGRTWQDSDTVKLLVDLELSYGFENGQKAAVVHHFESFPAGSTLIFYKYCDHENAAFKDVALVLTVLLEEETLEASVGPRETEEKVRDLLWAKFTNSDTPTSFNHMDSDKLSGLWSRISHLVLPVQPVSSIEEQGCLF

| compound | composite z-score |
| --- | --- |
| C[N+](C)(C)CCCCCCNC(=O)[C@@H]1C[C@@H]2C(=O)NCC(=O)N2[C@@H]1c1ccc(O)cc1 | 2.39 |
| COCCCNC(=O)[C@]1(Cc2ccccc2)N=C(c2ccc(OCCCO)cc2)O[C@@H]1c1ccccc1N=[N+]=[N-] | 3.16 |
| [N-]=[N+]=NCc1ccccc1C[C@]1(C(=O)NCCN2CCOCC2)COC(c2ccc(OCCCO)cc2)=N1 | 3.08 |
| Cc1ccc(N2C(=O)c3ccccc3[C@](C)(C(=O)NC(C)C)[C@@H]2c2ccc(CO)cc2)nc1 | 3.07 |
| COC(=O)[C@@]1(Cc2ccccc2)[C@H]2c3cc(C(=O)N(C)C)n(Cc4ccc(O)c(OC)c4)c3C[C@H]2CN1C(=O)c1ccccc1 | 2.74 |
| CCCCC(CC)C(O)C1C=CC2C(=O)NC(=O)C2N1Nc1ccccn1 (stereo not given) | 2.74 |
| CC(C)C(CO)N1C(=O)[C@@H]2[C@H]3C(=O)OCC=C[C@H]3OC23C=CCN(Cn2nnc4ccccc42)C(=O)[C@@H]13 (stereo not given in full) | 0.704 |
| C[N+](C)(C)CCCC[C@@H]1NC(=O)[C@@H]2C[C@H](C(=O)NCCCCCNC(=O)CS)[C@H](c3cccc(OCCO)c3)N2C1=O | 0.743 |
| COCCOC(=O)N1C(=O)[C@@]2(c3cc(C#CCNC(N)=O)ccc31)[C@H](c1ccc(OCCO)cc1)N1[C@H](c3ccccc3)[C@H](c3ccccc3)OC(=O)[C@H]1[C@@H]2C(=O)N1CCN(c2ncccn2)CC1 | 2.1 |
| COC(=O)[C@@]1(Cc2ccc(F)cc2)[C@@H]2[C@@H](CC(=O)[C@H]2CC(=O)C(=O)N2CCCC2)CN1C(=O)c1ccccc1 | 3.67 |
| COc1ccccc1CN1C(=O)c2ccccc2[C@@H](C(=O)NCC(C)C)[C@@H]1c1ccc(CO)cc1 | 2.18 |
| NCCCCCCNC(=O)[C@H]1C[C@H]2C(=O)N3CCC[C@H]3C(=O)N2[C@H]1c1ccc(O)cc1 | 0.991 |
| O=C1O[C@@H](c2ccccc2)[C@@H](c2ccccc2)N2[C@@H](c3ccc(O)cc3)[C@]3(C(=O)Nc4ccc(C#CC5(O)CCCCCC5)cc43)[C@@H](C(=O)N3CCN(c4ncccn4)CC3)[C@H]12 | 2.75 |
| C[C@]12C(=O)N(CCCO)[C@@H]3C(=O)N(c4ccc(Cl)cc4)CC=CC31O[C@@H]1/C=C\CCCOC(=O)C12 (stereo not given in full) | 3.16 |
| CCCC=C(CCC)[C@@H](NC(=O)Cc1ccccc1)c1ccc(C(=O)OC)cc1 | 1.54 |

###

assay: change in splice reporter luminescence, either direction, cell-based, HEK293, spliceosome inhibition project, primary screen (AID 1101); conditions: HEK293 splicing luciferase reporter, 24 h, higher = more signal, called active from +8 up or from −8 down;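 note: HEK293 cells carrying a splicing-competent luciferase reporter gene; test concentration not given here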
So basically: z-score at -0.2 or higher? That is Satisfied. Lower than -0.2? That is Not satisfied.

| compound | label_value |
| --- | --- |
| CN(C)C(=O)[C@@]1(Cc2ccccc2N=[N+]=[N-])N=C(c2ccc(OCCCO)cc2)O[C@H]1c1ccccc1N=[N+]=[N-] | Satisfied |
| C=C(/C(=C/C[C@@H](OC(=O)c1ccncc1)c1ccccc1OCCO)c1cnc2ccccc2c1)C(C)C | Not satisfied |
| CC(C)CNC(=O)[C@@]1(c2ccc([N+](=O)[O-])cc2)CC(=O)N(C(C)C)[C@@H]1c1ccc(CO)cc1 | Not satisfied |
| C=C(CCCC)/C(=C/C[C@@H](OC(=O)c1ccncc1)c1ccccc1OCCO)c1cc(C(=O)OC)ccc1OC | Not satisfied |
| CCOC(=O)C[C@H]1[C@H](OC(=O)c2ccc(C(=O)c3ccccc3)cc2)[C@@H](NC(=O)C2CCCCC2)c2cc(OCCCO)ccc2N1C(=O)Cc1ccc(OC)cc1 | Satisfied |
| C[N+](C)(C)CCCCCCNC(=O)[C@@H]1C[C@@H]2C(=O)NCC(=O)N2[C@@H]1c1ccc(O)cc1 | Satisfied |
| COc1cc(NN2C(C(O)c3ccc(I)cc3)C=CC3C(=O)N(C)C(=O)C32)cc(OC)c1OC (configuration not stated) | Satisfied |

###

assay: blockers of DNA damage checkpoint Chk1 activation – imaging, HeLa, hydroxyurea, phospho-Chk1 nuclear intensity, primary screen (AID 1187); conditions: hydroxyurea-induced phospho-Chk1 immunofluorescence imaging, higher = more signal; note: test concentration not given here
Range-based classes on measured z-score: low band: < -0.4; middle band: ≥ -0.4 and < 0.2; high band: ≥ 0.2

| compound | label_value |
| --- | --- |
| COCCOC(=O)N1C(=O)[C@@]2(c3cc(C#Cc4ccc(OC)cc4)ccc31)[C@H](C(=O)N1CCc3cc(OC)c(OC)cc3C1)[C@H]1C(=O)O[C@H](c3ccccc3)[C@H](c3ccccc3)N1[C@@H]2c1ccc(OCCO)cc1 | high band |
| CC(=O)NCCCC[C@@H]1NC(=O)[C@@H]2C[C@H](C(=O)NCCCC[N+](C)(C)C)[C@H](c3cccc(OCCO)c3)N2C1=O | middle band |
| COC(=O)c1ccc(OC)c(/C=C\CC(CCc2ccccc2)OC(C)=O)c1 (stereo not given) | high band |
| CCCNC(=O)[C@@H]1c2ccccc2C(=O)N(CC23CC4CC(CC(C4)C2)C3)[C@H]1c1ccc(CO)cc1 | middle band |
| CCC[C@@H]1C[C@@]1(CCC)[C@@H](NC(=O)c1ccco1)c1ccc(Cl)cc1 | high band |
| COCCCNC(=O)[C@]1(Cc2ccccc2)N=C(c2ccc(OCCCO)cc2)O[C@@H]1c1ccccc1N=[N+]=[N-] | low band |
| Cc1ccc(S[C@]2(C(=O)NCC(C)C)CC(=O)N(C3CCCCC3)[C@@H]2c2ccc(CO)cc2I)cc1 | high band |
| O=C1NC(=O)C2C1C=CC(C(O)CCc1ccccc1)N2Nc1ccccn1 (stereo not given) | low band |
| CC(C)(C)OC(=O)CC[C@]1(C(=O)O)COC(c2ccc(OCCCO)cc2)=N1 | middle band |
| CC1CC/C=C\[C@H]2OC34C=CCN(c5ccc(Cl)cc5)C(=O)[C@H]3N(C(CO)C(C)C)C(=O)[C@]4(C)C2C(=O)O1 (stereo not given in full) | low band |
| COc1ccc(C(=O)Nc2ccc3c(c2)[C@]2(O[C@@H](CCO)[C@H]([Si](C)(C)c4ccc(OC)cc4)[C@H]2C)C(=O)N3Cc2ccccc2)cc1 | low band |
| Cc1ccccc1C(O)C1C=CC2C(=O)N(Cc3ccccc3)C(=O)C2N1n1cnnc1 (stereo not given) | low band |
| Cc1ccc(S[C@]2(C(=O)NCc3ccccc3)CC(=O)N(C3Cc4ccccc4C3)[C@@H]2c2ccc(CO)cc2I)cc1 | middle band |
| COCCOC(=O)N1C(=O)[C@@]2(c3cc(C#Cc4ccc(OC)cc4)ccc31)[C@H](c1ccc(OCCO)cc1)N1[C@H](c3ccccc3)[C@H](c3ccccc3)OC(=O)[C@H]1[C@@H]2C(N)=O | high band |
| N#Cc1ccc(NN2C(C(O)c3ccco3)C=CC3C(=O)N(c4ccccc4)C(=O)C32)cc1 (stereo not given) | middle band |

###

molecular target: Albumin (Bos taurus) (UniProt P02769); assay: compounds binding labelled BSA control protein – biochemical, small-molecule microarray, Alexa647 label, 635/667 nm fluorescence, artefact control for SMM control protein annotation, profiling panel (AID 1118); conditions: BSA-A647 binding, fluorescence 635 nm, higher = more signal;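 note: score merges 667 nm emission intensity and signal-to-noise per printed compound spot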
Sequence (P02769 whole entry, looked up): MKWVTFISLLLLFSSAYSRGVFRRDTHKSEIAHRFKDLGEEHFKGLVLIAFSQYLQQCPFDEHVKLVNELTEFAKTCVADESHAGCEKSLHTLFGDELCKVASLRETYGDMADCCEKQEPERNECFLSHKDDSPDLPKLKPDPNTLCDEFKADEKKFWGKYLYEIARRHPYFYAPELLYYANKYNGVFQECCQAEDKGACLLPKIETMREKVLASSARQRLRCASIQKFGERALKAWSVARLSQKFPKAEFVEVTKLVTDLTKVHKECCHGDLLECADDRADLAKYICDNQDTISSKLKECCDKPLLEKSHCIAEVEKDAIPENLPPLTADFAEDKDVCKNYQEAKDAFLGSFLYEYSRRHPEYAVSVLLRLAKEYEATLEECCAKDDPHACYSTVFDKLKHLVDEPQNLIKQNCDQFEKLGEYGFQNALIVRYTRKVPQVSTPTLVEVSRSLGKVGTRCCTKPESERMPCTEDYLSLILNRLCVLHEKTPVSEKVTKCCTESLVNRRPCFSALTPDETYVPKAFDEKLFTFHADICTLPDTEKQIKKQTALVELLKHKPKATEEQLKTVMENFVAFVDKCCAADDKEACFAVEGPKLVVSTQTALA
value_kind: composite z-score

| compound | obs_value |
| --- | --- |
| COC(=O)[C@@]1(Cc2ccccc2)[C@H]2c3cc(C(=O)N4CCCC4)n(CCO)c3C[C@H]2CN1C(=O)c1ccccc1 | 1.03 |
| C=C(CCCC)/C(=C/C[C@H](OC(=O)c1ccncc1)c1ccc(CO)o1)c1cc(C(=O)OC)ccc1OC | 0.572 |
| COCCCNC(=O)[C@@]1(Cc2ccccc2CN=[N+]=[N-])N=C(c2ccc(OCCCO)cc2)O[C@H]1c1ccccc1N=[N+]=[N-] | 0.778 |
| [N-]=[N+]=NCc1ccccc1[C@H]1OC(c2ccc(OCCCO)cc2)=N[C@@]1(Cc1ccccc1N=[N+]=[N-])C(=O)N1CCCCC1 | -0.0584 |
| CC1CC/C=C\[C@H]2OC34C=CCN(c5ccc(Cl)cc5)C(=O)[C@H]3N(C(CO)C(C)C)C(=O)[C@]4(C)C2C(=O)O1 (some centres undefined) | 0.788 |
| CN(C)C(=O)[C@@]1(CCC(=O)OC(C)(C)C)N=C(c2ccc(OCCCO)cc2)O[C@H]1c1ccccc1N=[N+]=[N-] | 1.03 |
| N#Cc1ccc(NN2C(C(O)c3ccccc3)C=CC3C(=O)N(c4ccccc4)C(=O)C32)cc1 (centres undefined) | 0.801 |
| C=C[C@H](C)[C@H](OC(=O)Nc1ccc(SC)cc1)c1ccc(O)c2ccccc12 | 0.801 |
| C#CCOC(=O)N[C@H](C=CCCCC)c1ccccc1 | 1.02 |
| CC(C)(C)OC(=O)CC[C@@]1(C(=O)N2CCCCC2)N=C(c2ccc(OCCCO)cc2)O[C@@H]1c1ccccc1CN=[N+]=[N-] | 1.03 |
| CCCCC(=C=CC[C@H](O)c1cccc(OCCO)c1)C[C@H](O)COCc1ccccc1 | 0.92 |
| COCCCNC(=O)[C@@H]1c2ccccc2C(=O)N(Cc2cc(F)cc(C(F)(F)F)c2)[C@H]1c1ccc(CO)cc1 | -0.146 |
| O=C1CSC(c2cccc([N+](=O)[O-])c2)N1c1ccccc1 (centres undefined) | 0.0623 |
| COC(=O)C(CC#Cc1ccc2c(c1)[C@]1(C(=O)N2)[C@H](c2ccc(OCCO)cc2)N2[C@H](c3ccccc3)[C@H](c3ccccc3)OC(=O)[C@H]2[C@@H]1C(=O)O)C(=O)OC | 0.803 |
| COCCOC(=O)N1C(=O)[C@@]2(c3ccccc31)[C@H](c1ccccc1OCCO)N1[C@H](c3ccccc3)[C@H](c3ccccc3)OC(=O)[C@H]1[C@@H]2C(=O)N1CCc2cc(OC)c(OC)cc2C1 | -0.274 |
| COc1ccc([Si](C)(C)[C@H]2[C@H](CCn3cc(CCO)nn3)O[C@@]3(C(=O)N(Cc4cccc(N5C(=O)c6cccc7cccc5c67)c4)c4ccccc43)[C@@H]2C)cc1 | 0.451 |
| C=C(CCCC)/C(=C/C[C@@H](OC(=O)c1ccncc1)c1ccccc1OCCO)c1cc(C(=O)OC)ccc1OC | 0.865 |
| O=C1c2ccccc2[C@](Cc2ccccc2I)(C(=O)NC2CC2)[C@H](c2ccc(CO)cc2)N1Cc1ccccc1Cl | 0.0646 |
| C[C@H]1NC(=O)C([C@@H](C)OCc2ccccc2)NC(=O)[C@@]23C(=O)N[C@@H](Cc4ccccc4)C2[C@H](C)[C@@]2(C)O[C@H]2C3/C=C/CC/C=C/CNC1=O (some centres undefined) | 0.506 |
